- Setup conditions: in methanol, 308.15 K
Measurement name: solubility (mole fraction)
// no unit, no text: just the number

input: Suppose we examine the molecule Nc1cnc(Br)cn1 ; what solubility (mole fraction) value has been reported?
output: 0.00167

* * *

- Setup conditions: in n-propanol, 283.15 K
Measurement name: solubility (mole fraction)
// no unit, no text: just the number

input: Suppose we examine the compound Nc1cnc(Br)cn1 ; what solubility (mole fraction) value has been reported?
output: 0.00392

* * *

- Setup conditions: in acetone, 293.15 K
Measurement name: solubility (mole fraction)
// no unit, no text: just the number

input: Suppose we examine the molecule Nc1cnc(Br)cn1 ; what solubility (mole fraction) value has been reported?
output: 0.00961

* * *

- Setup conditions: in water, 313.15 K
Measurement name: solubility (mole fraction)
// no unit, no text: just the number

input: Suppose we examine the compound Nc1cnc(Br)cn1 ; what solubility (mole fraction) value has been reported?
output: 3.83e-05

* * *

- Setup conditions: in n-propanol, 288.15 K
Measurement name: solubility (mole fraction)

input: Suppose we examine the compound Nc1cnc(Br)cn1 ; what solubility (mole fraction) value has been reported?
output: 0.00445

* * *

- Setup conditions: in methanol, 278.15 K
Measurement name: solubility (mole fraction)
// no unit, no text: just the number

input: Suppose we examine the compound Nc1cnc(Br)cn1 ; what solubility (mole fraction) value has been reported?
output: 0.000887

* * *

- Setup conditions: in ethylene glycol, 318.15 K
Measurement name: solubility (mole fraction)
// no unit, no text: just the number

input: Suppose we examine the compound Nc1cnc(Br)cn1 ; what solubility (mole fraction) value has been reported?
output: 0.00166

* * *

- Setup conditions: in ethanol, 318.15 K
Measurement name: solubility (mole fraction)
// no unit, no text: just the number

input: Suppose we examine the molecule Nc1cnc(Br)cn1 ; what solubility (mole fraction) value has been reported?
output: 0.00345

* * *

- Setup conditions: in water, 298.15 K
Measurement name: solubility (mole fraction)
// no unit, no text: just the number

input: Suppose we examine the compound Nc1cnc(Br)cn1 ; what solubility (mole fraction) value has been reported?
output: 2.73e-05

* * *

- Setup conditions: in n-butanol, 318.15 K
Measurement name: solubility (mole fraction)
// no unit, no text: just the number

input: Suppose we examine the molecule Nc1cnc(Br)cn1 ; what solubility (mole fraction) value has been reported?
output: 0.0131

* * *

- Setup conditions: in ethylene glycol, 278.15 K
Measurement name: solubility (mole fraction)
// no unit, no text: just the number

input: Suppose we examine the compound Nc1cnc(Br)cn1 ; what solubility (mole fraction) value has been reported?
output: 0.000694

* * *

- Setup conditions: in methanol, 318.15 K
Measurement name: solubility (mole fraction)
// no unit, no text: just the number

input: Suppose we examine the compound Nc1cnc(Br)cn1 ; what solubility (mole fraction) value has been reported?
output: 0.00204

* * *

- Setup conditions: in propylene glycol, 303.15 K
Measurement name: solubility (mole fraction)

input: Suppose we examine the molecule Nc1cnc(Br)cn1 ; what solubility (mole fraction) value has been reported?
output: 0.00192

* * *

- Setup conditions: in propylene glycol, 293.15 K
Measurement name: solubility (mole fraction)

input: Suppose we examine the compound Nc1cnc(Br)cn1 ; what solubility (mole fraction) value has been reported?
output: 0.00153

* * *

- Setup conditions: in acetone, 278.15 K
Measurement name: solubility (mole fraction)
// no unit, no text: just the number

input: Suppose we examine the compound Nc1cnc(Br)cn1 ; what solubility (mole fraction) value has been reported?
output: 0.00684

* * *

- Setup conditions: in isopropanol, 308.15 K
Measurement name: solubility (mole fraction)
// no unit, no text: just the number

input: Suppose we examine the compound Nc1cnc(Br)cn1 ; what solubility (mole fraction) value has been reported?
output: 0.00531

* * *

- Setup conditions: in ethylene glycol, 303.15 K
Measurement name: solubility (mole fraction)
// no unit, no text: just the number

input: Suppose we examine the molecule Nc1cnc(Br)cn1 ; what solubility (mole fraction) value has been reported?
output: 0.00121

* * *

- Setup conditions: in n-butanol, 278.15 K
Measurement name: solubility (mole fraction)

input: Suppose we examine the compound Nc1cnc(Br)cn1 ; what solubility (mole fraction) value has been reported?
output: 0.00541

* * *

- Setup conditions: in isopropanol, 298.15 K
Measurement name: solubility (mole fraction)
// no unit, no text: just the number

input: Suppose we examine the compound Nc1cnc(Br)cn1 ; what solubility (mole fraction) value has been reported?
output: 0.00429

* * *

- Setup conditions: in ethylene glycol, 308.15 K
Measurement name: solubility (mole fraction)
// no unit, no text: just the number

input: Suppose we examine the compound Nc1cnc(Br)cn1 ; what solubility (mole fraction) value has been reported?
output: 0.00135

* * *

- Setup conditions: in n-propanol, 308.15 K
Measurement name: solubility (mole fraction)
// no unit, no text: just the number

input: Suppose we examine the compound Nc1cnc(Br)cn1 ; what solubility (mole fraction) value has been reported?
output: 0.00696

* * *

- Setup conditions: in ethylene glycol, 288.15 K
Measurement name: solubility (mole fraction)
// no unit, no text: just the number

input: Suppose we examine the compound Nc1cnc(Br)cn1 ; what solubility (mole fraction) value has been reported?
output: 0.000869

* * *

- Setup conditions: in propylene glycol, 283.15 K
Measurement name: solubility (mole fraction)
// no unit, no text: just the number

input: Suppose we examine the compound Nc1cnc(Br)cn1 ; what solubility (mole fraction) value has been reported?
output: 0.00125

* * *

- Setup conditions: in acetone, 313.15 K
Measurement name: solubility (mole fraction)
// no unit, no text: just the number

input: Suppose we examine the compound Nc1cnc(Br)cn1 ; what solubility (mole fraction) value has been reported?
output: 0.0149

* * *

- Setup conditions: in isopropanol, 323.15 K
Measurement name: solubility (mole fraction)
// no unit, no text: just the number

input: Suppose we examine the compound Nc1cnc(Br)cn1 ; what solubility (mole fraction) value has been reported?
output: 0.00735

* * *

- Setup conditions: in DMF, 293.15 K
Measurement name: solubility (mole fraction)
// no unit, no text: just the number

input: Suppose we examine the compound Nc1cnc(Br)cn1 ; what solubility (mole fraction) value has been reported?
output: 0.0119

* * *

- Setup conditions: in water, 308.15 K
Measurement name: solubility (mole fraction)

input: Suppose we examine the compound Nc1cnc(Br)cn1 ; what solubility (mole fraction) value has been reported?
output: 3.42e-05

* * *

- Setup conditions: in ethanol, 298.15 K
Measurement name: solubility (mole fraction)

input: Suppose we examine the molecule Nc1cnc(Br)cn1 ; what solubility (mole fraction) value has been reported?
output: 0.00217

* * *

- Setup conditions: in propylene glycol, 278.15 K
Measurement name: solubility (mole fraction)
// no unit, no text: just the number

input: Suppose we examine the compound Nc1cnc(Br)cn1 ; what solubility (mole fraction) value has been reported?
output: 0.00113

* * *

- Setup conditions: in n-propanol, 298.15 K
Measurement name: solubility (mole fraction)

input: Suppose we examine the compound Nc1cnc(Br)cn1 ; what solubility (mole fraction) value has been reported?
output: 0.00563

* * *

- Setup conditions: in water, 318.15 K
Measurement name: solubility (mole fraction)

input: Suppose we examine the molecule Nc1cnc(Br)cn1 ; what solubility (mole fraction) value has been reported?
output: 4.27e-05

* * *

- Setup conditions: in propylene glycol, 288.15 K
Measurement name: solubility (mole fraction)
// no unit, no text: just the number

input: Suppose we examine the molecule Nc1cnc(Br)cn1 ; what solubility (mole fraction) value has been reported?
output: 0.00139

* * *

- Setup conditions: in ethanol, 288.15 K
Measurement name: solubility (mole fraction)
// no unit, no text: just the number

input: Suppose we examine the compound Nc1cnc(Br)cn1 ; what solubility (mole fraction) value has been reported?
output: 0.00174

* * *

- Setup conditions: in DMF, 303.15 K
Measurement name: solubility (mole fraction)
// no unit, no text: just the number

input: Suppose we examine the compound Nc1cnc(Br)cn1 ; what solubility (mole fraction) value has been reported?
output: 0.0149

* * *

- Setup conditions: in methanol, 298.15 K
Measurement name: solubility (mole fraction)
// no unit, no text: just the number

input: Suppose we examine the compound Nc1cnc(Br)cn1 ; what solubility (mole fraction) value has been reported?
output: 0.00135

* * *

- Setup conditions: in water, 283.15 K
Measurement name: solubility (mole fraction)
// no unit, no text: just the number

input: Suppose we examine the compound Nc1cnc(Br)cn1 ; what solubility (mole fraction) value has been reported?
output: 1.93e-05

* * *

- Setup conditions: in methanol, 293.15 K
Measurement name: solubility (mole fraction)
// no unit, no text: just the number

input: Suppose we examine the compound Nc1cnc(Br)cn1 ; what solubility (mole fraction) value has been reported?
output: 0.00121

* * *

- Setup conditions: in ethylene glycol, 293.15 K
Measurement name: solubility (mole fraction)

input: Suppose we examine the compound Nc1cnc(Br)cn1 ; what solubility (mole fraction) value has been reported?
output: 0.00097

* * *

- Setup conditions: in water, 278.15 K
Measurement name: solubility (mole fraction)
// no unit, no text: just the number

input: Suppose we examine the compound Nc1cnc(Br)cn1 ; what solubility (mole fraction) value has been reported?
output: 1.76e-05
